Test system: SNB-19 CNS
Assay: NCI-60 one-dose screen, 48 h
Conditions: 10 µM unless noted
Method: Growth inhibition of the SNB-19 human tumor cell line is measured as a screen for anti-cancer activity. Cells are grown in 96 well plates and exposed to the test compound for 48 hours. Compounds are tested at a single concentration, which is 10^-5 M for most compounds. The reported endpoint is percent growth (GI% or GIPRCNT), where numbers from 0 - 100% represent growth inhibition, and numbers from -100% - 0 represent cell death. For example, a value of 40 represents 60% growth inhibition. […]
This is part of a sample that, as a whole, favours compounds with a hit. Of some 83,000 tested, about 20% had one in any assay. Calls of active or inactive are those of the source. The calls were made as follows: active = growth percent below 10; inactive = the rest.
Choose the fitting class; nothing outside active, inactive is accepted.

Query: recorded result category for "CCNC(=O)Nc1ncccc1OCc1ccc(F)cc1" in this test inactive

Query: recorded result category for "CCCCCCCCCCCCC[C@H](O)C[C@H](O)[C@H](C)N" in this test inactive

Query: recorded result category for "c1ccc(-c2cc(-c3cc(-c4ccccc4)on3)no2)cc1" in this test inactive

Query: recorded result category for "CN1CCN(CCNC(=O)c2cccc(CN3c4cccc5c4C(=Cc4cccnc43)N(C)C5=O)c2)CC1" in this test inactive

Query: recorded result category for "N#Cc1c(-c2cccc(F)c2)cc(-c2cccnc2)[nH]c1=O" in this test inactive

Query: recorded result category for "COc1ccc(Cl)cc1Nc1nc(C(F)(F)F)ccc1C(=O)N/N=C/c1ccc(N(C)C)cc1" in this test inactive

Query: recorded result category for C=C(CNCCO)[C@@H]1CC[C@]2(CO)CC[C@]3(C)[C@H](CC[C@@H]4[C@@]5(C)CCC(NCCc6ccc(O)cc6)C(C)(C)[C@@H]5CC[C@]43C)[C@@H]12 (stereo not given in full) in this test active

Query: recorded result category for "CN1CCN(c2ccc(Nc3ncc(C(N)=O)c(NCCCNC(=O)C4CCC4)n3)cc2)CC1" in this test inactive

Query: recorded result category for "Nc1nc(Nc2cccnc2)sc1C(=O)c1ccccc1F" in this test inactive

Query: recorded result category for "NC(N)=NC(N)=NCCCc1ccco1" in this test inactive

Query: recorded result category for CCCN1C(=O)/C(=c2\sc3n(c2=O)C2C(NN=3)N(CC)C(=O)N2CC)c2ccccc21 (stereo not given) in this test inactive

Query: recorded result category for Cc1ccc2c(c1)C(C)Cc1c(ncnc1-n1cnc3cc(C)ccc31)N2C (stereo not given) in this test inactive

Query: recorded result category for "CONC1=Nc2cc(NC(N)=NCc3ccccc3)c(N(C)C3CCCCC3)cc2OC1" in this test inactive

Query: recorded result category for "COc1ccc(-c2ccc(-c3ccc(C(=N)N)cn3)o2)cc1Cl" in this test inactive

Query: recorded result category for "Cc1[nH]c(C(=O)Nc2nc3ccc(NC(=O)CCN)cc3s2)c(Cl)c1Cl" in this test inactive

Query: recorded result category for "COc1ccc(Nc2ncnc3ccc(-c4cncc(NS(C)(=O)=O)c4)cc23)cc1Cl" in this test inactive

Query: recorded result category for "C=C1C(=O)O[C@H]2[C@H]1CC/C(COC(=O)NCc1ccc(Cn3c(=O)sn(CCCI)c3=O)cc1)=C\CC[C@@]1(C)O[C@@H]21" in this test inactive

Query: recorded result category for CN1CCCc2cc(/C=C3\SC(=S)N(C(Cc4ccc(O)cc4)C(=O)O)C3=O)ccc21 (stereo not given) in this test inactive

Query: recorded result category for O=C(NNc1ccccc1)C1CCCN1 (stereo not given) in this test inactive

Query: recorded result category for CCN1C(=S)N(CC)C2C1NC(=S)N2/N=C/C=C/c1ccccc1 (stereo not given) in this test inactive
